molecular target: T1, c-erbB-2 ECD with a Ser-Gly-His6 C-terminal fusion (UniProt P04626 23-652); test: SPR BIAcore
T1 construct: extracellular domain; Expressed from CHO cells, IMAC purified; coupled to a CM5 chip, coated on plates, or biotinylated with NHS-LC-biotin; also called c-erbB-2 extracellular domain; biotinylated c-erbB-2 ECD
measurement-type: pKd
// pKd is dimensionless: -log10 of concentration (M)

Check the records and state pKd for C6ML3-A3 (scFv) scFv: QVQLLQSGAELKKPGESLKISCKGSGYSFTSYWIAWVRQMPGKGLEYMGLIYPGDSDTKYSPSFQGQVTISVDKSVSTAYLQWSSLKPSDSAVYFCARHDVGYCSSSDCAKWPEYFQHWGQGTLVTVSSGGGGSGGGGSGGGGSQSVLTQPPSVSAAPGQKVTISCSGSSSNIGNNYVSWYQQLPGTAPKLLIYGHTNRPAGVPDRFSGSKSGTSASLAISGFRSEDEADYYCASWDYTLSGWVFGGGTKLTVLG
7.80
